Reported values of z-score for individual entries
- method: basal 3T3-L1 adipocyte mitochondrial potential changes, profiling panel, cell-based, JC-1 fluorescence, 3T3-L1 adipocytes, 24 h, 100 nL compound (AID 1168)
- details: JC-1 mitochondrial fluorescence, higher = more signal, called active from +8 up or from −8 down
parameter: z-score

- COC(=O)[C@H](C)NC(=O)CCC1CC(OC(=O)NCc2ccc3c(c2)OCO3)CC2(CCCC(COC(=O)NCc3ccccc3)O2)O1 (stereo partly drawn): 0.552
- COC(=O)[C@H](C)NC(=O)CCC1CC(OC(=O)NCCc2ccc(F)cc2)CC2(CCCC(COC(=O)NCc3ccccc3)O2)O1 (stereo partly drawn): 0.553
- CO[C@H]1C[C@@H]2C[C@H](O)CC(CC(=O)O[C@@H](C=CCC(C)C)C[C@@H]3CC[C@H](C)[C@@H](C1)O3)O2: -0.975
- O=C1C[C@@H](O)[C@@H](O)[C@@H]2[C@@H]3C(=O)N(c4ccc(F)cc4F)C(=O)[C@@H]3CC[C@H]12: -0.922
- CCOC(=O)[C@H](CC(C)C)NC(=O)CCC1CC(OC(=O)NCc2ccc3c(c2)OCO3)CC2(CCCC(COC(=O)NCCOC)O2)O1 (stereo partly drawn): 0.65
- COC(=O)[C@@H]1CC[C@H](C)[C@@H](c2ccc(Br)cc2)N1C(=O)C(F)(F)F: 0.0984
- COCC#Cc1ccc([C@@H]2N[C@H](C(=O)O)CC[C@H]2C)cc1: 0.727
- CC(=O)OC[C@H]1O[C@H](C#CCC2CCCCC2)C=C[C@@H]1OC(C)=O: -0.185

---

- System: XIP peptide (Xip251-270)
- method: small-molecule binders of XIP peptide, primary screen, biochemical, small-molecule microarray, fluorescence 635/667 nm, 0.5 µg/mL protein (AID 1183)
- details: small-molecule microarray binding, fluorescence 635 nm; higher = more signal
Kindly return Met if reported composite z-score is no lower than 0.3; return Not met if it is lower.

* CC1(C)O[C@H]2OC([C@H](O)CON3C(=O)c4ccccc4C3=O)[C@H](O)[C@H]2O1 (stereo partly drawn) | Not met
* CC(=O)OC[C@H]1O[C@H](CC=NOC(C)CN2CCCc3nc(C)c(C)cc32)C=C[C@@H]1OC(C)=O (stereo partly drawn) | Met
* O=C1[C@H]2[C@H]3[C@H](O)[C@H](O)CC(=NO[C@@H]4O[C@H](CO)[C@@H](O)[C@H](O)[C@H]4O)[C@@H]3CC[C@H]2C(=O)N1c1cccc(Oc2ccccc2)c1 | Met
* CC(CCC(=O)OC[C@H]1O[C@H](C#Cc2ccccc2)C=C[C@@H]1Oc1ccc(C)cc1)=NOC(C)CN1CCCc2nc(C)c(C)cc21 (stereo partly drawn) | Met
* CCOC(=O)CCN1C(=O)[C@H]2[C@H]3[C@H](O)[C@H](O)CC(=NOCC(C)C)[C@@H]3CC[C@H]2C1=O | Not met
* O=C1CCCC=C1C(O)COCc1ccccc1 (stereo not drawn) | Not met
* CCOC(=O)[C@H](CC(C)C)NC(=O)CCC1CC(OC(=O)NCc2ccc3c(c2)OCO3)CC2(CCCC(COC(=O)NCCC(C)C)O2)O1 (stereo partly drawn) | Met
* C[C@H]1CC[C@H]2C(=O)O[C@H](CO)CN2[C@@H]1c1ccc(Br)cc1 | Not met
